Taken from ChEMBL document CHEMBL5260817.

Assay: Inhibition of Trypanosoma brucei recombinant N-terminal His-tag TryS in presence of ATP

>  <COMPOUND_STRING>
CC(C)c1ccc(CNCCCCCCCCCCNCc2ccc(C(C)C)cc2)cc1

>  <IC50 (µM)>
30

$$$$

====

System: Leishmania donovani
Test: Antiprotozoal activity against Leishmania donovani MHOM/IN/00/DEV strain promastigotes assessed as growth inhibition measured after 72 hrs by MTT assay
Format: functional, organism-based

>  <COMPOUND_STRING>
c1ccc2c(c1)cc1c(-c3ccc(CNCCCN4CCN(CCCNCc5ccc(-c6nc7ccccc7n7c6cc6ccccc67)cc5)CC4)cc3)nc3ccccc3n12

>  <OUTPUT_UNIT>
nM

>  <IC50>
570

$$$$
